# method.summary: NCI Yeast Anticancer Drug Screen. Data for the mec2-1 strain (AID 157)
# condition.parameters: S. cerevisiae mec2-1 strain, at 50.0 µM, hits give high values
About 79,000 compounds went through this panel and 15% of them were active in at least one assay; those are over-represented in the sample as a whole. Active and inactive are the calls of the source. Cut-off read from the data, not from the text of the source: active = growth inhibition above about 70%; inactive = the rest.
List of growth inhibition values.
property: growth inhibition

compound: Brc1cccc(Br)n1
result: -6.15% (inactive)
--
compound: O=S(=O)(c1ccccc1)c1ccc(CBr)cc1
result: 1.85% (inactive)
--
compound: O=C(OCN1C(=O)C2C3C=CC(C2C1=O)C1C2C(=O)N(COC(=O)C4CCCN4)C(=O)C2C31)C1CCCN1 (configuration not stated)
result: -15.6% (inactive)
--
compound: CCCCC1(CCBr)C(=O)NC(=Nc2ccccc2)NC1=O (configuration not stated)
result: -5.35% (inactive)
--
compound: CN(C)C(=NN)N(C)C
result: -2.3% (inactive)
--
compound: C[Si](C)(C)CSC#N
result: 6.45% (inactive)
--
compound: CC[N+](C)(C)CCOP(=O)(c1ccccc1)c1ccccc1
result: 6.35% (inactive)

###

Measured growth inhibition by item
# method.summary: NCI Yeast Anticancer Drug Screen. Data for the rad50 strain (AID 155);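 note: 0% = growth of vehicle-only cultures of the same strain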
# condition.parameters: S. cerevisiae rad50 strain growth inhibition; at 50.0 µM; hits give high values
Compounds without any hit were thinned out: in the full panel of roughly 79,000, 15% have a hit. Calls of active or inactive are those of the source. No stated cut-off is given here; in the data, active means growth inhibition above about 70%; inactive means the rest.
property: growth inhibition

compound: CC(C)C1OCC(CO)([N+](=O)[O-])CO1 (stereo not given)
property: growth inhibition
result: -45% (inactive)

compound: CC(C)C(N)C(=O)NO (stereo not given)
property: growth inhibition
result: -17.1% (inactive)

compound: COC(=O)c1cc(-c2ccccc2)nc2c(Cl)cc(Cl)cc12
property: growth inhibition
result: -4.4% (inactive)

compound: CCCC(C)(CCC)OC(=O)Nc1cccc2ccccc12
property: growth inhibition
result: -3% (inactive)

compound: Nc1ccc(C(=O)O)cn1
property: growth inhibition
result: -20.4% (inactive)

compound: COC(=O)C1(OC)C(=O)NC2=C1C(=O)c1ccccc1C2=O (stereo not given)
property: growth inhibition
result: -12.1% (inactive)

compound: c1ccc(N=C(c2ccccc2)c2ccccc2)cc1
property: growth inhibition
result: 9.25% (inactive)

compound: Cc1cn(C2CC(O)C(COC(=O)C(C)(C)C)O2)c(=O)[nH]c1=O (stereo not given)
property: growth inhibition
result: 16.9% (inactive)

compound: N=C(N)SCc1cccc(Cl)c1
property: growth inhibition
result: -20% (inactive)

compound: c1ccc(-c2oc3ccc4ccccc4c3c2-c2ccc(OCCN3CCCC3)cc2)cc1
property: growth inhibition
result: 75.8% (active)

compound: Cn1cnc([N+](=O)[O-])c1Sc1nc2ncccc2[nH]1
property: growth inhibition
result: -5.6% (inactive)

compound: CCCC(=O)Nc1ccc(OCC)cc1
property: growth inhibition
result: -9.5% (inactive)

compound: CCCC[P+](C)(CC[P+](C)(c1ccccc1)c1ccccc1)c1ccccc1 (stereo not given)
property: growth inhibition
result: 36.3% (inactive)

compound: Cc1ccccc1Nc1n[nH]c(=O)n1-c1ccccc1C
property: growth inhibition
result: 4.05% (inactive)

compound: COC(=O)C(/C(=N\O)C(=O)Nc1cccc(Cl)c1C)c1cnc2ccccc2n1 (stereo not given)
property: growth inhibition
result: 14.5% (inactive)

compound: NC(=O)C1C2C=CC(O2)C1C(=O)O (stereo not given)
property: growth inhibition
result: -26.6% (inactive)

compound: COc1cc(C(=O)n2c(=O)oc(=O)c3cc([N+](=O)[O-])ccc32)cc(OC)c1OC
property: growth inhibition
result: -15.4% (inactive)

compound: CCOc1ccccc1NC(=S)NC(=O)CCc1ccccc1
property: growth inhibition
result: -12.9% (inactive)

compound: C=C[C@]1(O)CCC[C@]2(C)C(=O)CCC12C (stereo not given in full)
property: growth inhibition
result: -2.8% (inactive)

compound: Cc1ccc(-n2cnc3c(Cl)ncnc32)cc1[N+](=O)[O-]
property: growth inhibition
result: -4.05% (inactive)

compound: CCOC(=O)C(CCC(c1ccc(OC)cc1)c1ccc(OC)cc1)C(=O)OCC
property: growth inhibition
result: 29.7% (inactive)

compound: CCCN(CCCCC(NC(C)=O)C(=O)NCc1ccccc1)C(=O)NC (stereo not given)
property: growth inhibition
result: -26.9% (inactive)

compound: Cc1c(OC(C)C(=O)O)ccc2c(-c3ccccc3)cc(=O)oc12 (stereo not given)
property: growth inhibition
result: 2.95% (inactive)

compound: CCCCOC(=O)/C=C\C(=O)NC(=O)NC(C)(C)C
property: growth inhibition
result: -7.55% (inactive)

compound: Cc1ccc(C(=O)C[N+]2(C)CCOCC2)cc1
property: growth inhibition
result: 15.8% (inactive)
